Target protein (sequence): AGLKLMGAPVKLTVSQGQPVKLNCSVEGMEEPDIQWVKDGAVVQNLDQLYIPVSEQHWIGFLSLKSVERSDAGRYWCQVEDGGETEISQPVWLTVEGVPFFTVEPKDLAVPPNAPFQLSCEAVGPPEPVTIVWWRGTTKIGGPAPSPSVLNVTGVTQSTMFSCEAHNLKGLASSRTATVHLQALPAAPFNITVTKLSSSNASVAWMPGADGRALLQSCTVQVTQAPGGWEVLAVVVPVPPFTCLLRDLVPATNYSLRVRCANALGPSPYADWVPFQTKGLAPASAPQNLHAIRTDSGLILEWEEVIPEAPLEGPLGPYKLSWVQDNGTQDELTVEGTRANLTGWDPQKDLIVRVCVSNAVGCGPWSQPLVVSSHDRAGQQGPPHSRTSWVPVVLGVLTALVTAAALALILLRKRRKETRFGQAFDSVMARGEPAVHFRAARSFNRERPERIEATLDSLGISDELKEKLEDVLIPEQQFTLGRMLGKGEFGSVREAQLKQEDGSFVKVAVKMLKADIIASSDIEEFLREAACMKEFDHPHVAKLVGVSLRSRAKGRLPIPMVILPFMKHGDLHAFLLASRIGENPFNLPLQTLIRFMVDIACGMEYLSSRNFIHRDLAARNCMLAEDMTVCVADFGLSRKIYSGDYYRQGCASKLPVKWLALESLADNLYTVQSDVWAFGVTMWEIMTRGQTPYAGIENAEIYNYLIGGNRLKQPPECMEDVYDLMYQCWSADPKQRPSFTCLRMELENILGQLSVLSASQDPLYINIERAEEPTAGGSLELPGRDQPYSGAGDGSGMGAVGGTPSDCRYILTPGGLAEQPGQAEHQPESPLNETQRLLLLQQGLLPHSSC
quantityKind: Kd

Here's what some known entries look like.
compound | result
CCOc1cn(-c2cnc(OC)nc2)nc1C(=O)Nc1ccc(Oc2ccnc3cc(OC)c(OC)cc23)cn1 | ≥ 1 µM
CCOc1cn(-c2cnccn2)nc1C(=O)Nc1cc(C)c(Oc2ccnc3cc(OC)c(OC)cc23)cn1 | ≥ 1 µM
CCOc1cn(-c2cccs2)nc1C(=O)Nc1ccc(Oc2ccnc3cc(OC)c(OC)cc23)cn1 | < 0.1 µM
CCOc1cn(-c2ccc(OC(F)(F)F)cc2Cl)nc1C(=O)Nc1ccc(Oc2ccnc3cc(OC)c(OC)cc23)cc1F | 0.1 to 1 µM
CCOc1cn(-c2cnc(N)nc2)nc1C(=O)Nc1ccc(Oc2ccnc3cc(OC)c(OC(F)(F)F)cc23)cc1F | ≥ 1 µM
CCOc1cn(-c2cnccc2Cl)nc1C(=O)Nc1ccc(Oc2ccnc3cc(OC)c(OC)cc23)c(F)c1 | < 0.1 µM
COc1cc2nccc(Oc3ccc(NC(=O)c4nn(-c5ccc(F)c(C(C)=O)c5)cc4OCC4CC4)nc3)c2cc1OC | < 0.1 µM
CCOc1cn(-c2ccc(OC)cc2)nc1C(=O)Nc1ccc(Oc2ccnc3cc(OC)c(OC)cc23)cn1 | 0.1 to 1 µM

In: Recorded Kd of COc1cc2nccc(Oc3ccc(NC(=O)c4nn(-c5ccc(F)cc5C)cc4OCCN(C)C)cc3F)c2cc1OC , please.
Out: 0.1 to 1 µM

In: Field entry: CCOc1cn(C(C)CC#N)nc1C(=O)Nc1ccc(Oc2ccnc3cc(OC)c(OC)cc23)cn1 (stereo not drawn)
Out: 0.1 to 1 µM

In: Field entry: CCOc1cn(-c2ccc(C(F)(F)F)cc2F)nc1C(=O)Nc1ccc(Oc2ccnc3cc(OC)c(OC)cc23)cn1
Out: ≥ 1 µM

In: Field entry: CCOc1cn(-c2ncn(C)n2)nc1C(=O)Nc1ccc(Oc2ccnc3cc(OC)c(OC)cc23)cn1
Out: 0.1 to 1 µM

In: Field entry: CCOc1cnn(-c2cncs2)c1C(=O)Nc1ccc(Oc2ccnc3cc(OC)c(OC)cc23)cn1
Out: 0.1 to 1 µM

In: Field entry: COc1cc2nccc(Oc3ccc(NC(=O)c4nn(-c5ccc(F)cc5N5CCOCC5)cc4OCC4CC4)nc3)c2cc1OC
Out: < 0.1 µM

In: Field entry: CCOc1cnn(-c2cnc(C(F)(F)F)nc2)c1C(=O)Nc1ccc(Oc2ccnc3cc(OC)c(OC)cc23)cn1
Out: ≥ 1 µM
